# Test system: MOLM-13 cells (human acute myeloid leukemia cells)
# assayName: MOLM-13 Cellular Assay
# Type: cell-based
# experimentalSetup: Homo sapiens, MOLM-13, 72 h, 72 hours exposure, cell viability by CellTiter-Glo
readout: pIC50
The scale used: pIC50 is minus the common logarithm of the concentration in molar units.

Worked examples, 2 compounds total:
CCn1c(CO)nn(-c2cc3c(C(C)C)cn(-c4cc(F)ccc4C)c(=O)c3cc2F)c1=O [Example 67] | 9.05
C=C(C)c1cn(-c2c(Cl)cccc2Cl)c(=O)c2ccc(-n3nc(CO)n(CC)c3=O)cc12 [Example 8] | 9.15

The record that follows has no pIC50 shown yet.
Asked: Need pIC50, item C=C(C)c1cn(-c2cc(OC)ccc2F)c(=O)c2cc(F)c(-n3nc(CO)n(CC)c3=O)cc12 [Example 44]
Given back: 9.15
